Every entry's value here was drawn from patent US11021442B2.

Assay: Stability of lyophilized powder of aminothiol (WR-1065) at 25° C./60% RH under argon
Assay type: physicochemical
Conditions: T1m-25° C./60% RH, under argon atm.
Experimental readout: Aminothiol (%)

Compound | Scale unit | Val
NCCCNCCS [WR-1065•2HCl native, 2-[(3-aminopropyl)amino]ethanethiol] | % | 99.3

----------
Test: Stability of lyophilized powder of aminothiol (WR-1065) at 25° C./60% RH under argon
Type: physicochemical
Conditions: T0, under argon atm.
Experimental readout: Amifostine (%)

Compound | Experimental readout | Val
NCCCNCCS [WR-1065•2HCl native, 2-[(3-aminopropyl)amino]ethanethiol] | Amifostine | 0
